Quick reference: kcat/Km of the listed items.
Tested on: Escherichia coli
Assay: Ratio of Kcat to Km for Escherichia coli CF0042 beta-lactamase TEM-35
Parameters: unit not given here

[
  {
    "SMILES_DATA": "CC(=O)OCC1=C(C(=O)O)N2C(=O)[C@@H](NC(=O)Cc3cccs3)[C@H]2SC1",
    "ASSAY_SYSTEM": "Escherichia coli",
    "kcat/Km": 0.04
  },
  {
    "SMILES_DATA": "CC1(C)S[C@@H]2[C@H](NC(=O)[C@H](N)c3ccc(O)cc3)C(=O)N2[C@H]1C(=O)O",
    "ASSAY_SYSTEM": "Escherichia coli",
    "kcat/Km": 8.5
  },
  {
    "SMILES_DATA": "CC1(C)S[C@@H]2[C@H](NC(=O)[C@H](C(=O)O)c3ccsc3)C(=O)N2[C@H]1C(=O)O",
    "ASSAY_SYSTEM": "Escherichia coli",
    "kcat/Km": 0.4
  },
  {
    "SMILES_DATA": "CC1(C)S[C@@H]2[C@H](NC(=O)Cc3ccccc3)C(=O)N2[C@H]1C(=O)O",
    "ASSAY_SYSTEM": "Escherichia coli",
    "kcat/Km": 7.5
  },
  {
    "SMILES_DATA": "CCN1CCN(C(=O)N[C@@H](C(=O)N[C@@H]2C(=O)N3[C@@H]2SC(C)(C)[C@@H]3C(=O)O)c2ccccc2)C(=O)C1=O",
    "ASSAY_SYSTEM": "Escherichia coli",
    "kcat/Km": 2.9
  }
]
